Target: soybean lipoxygenase (LOX) (Glycine max, UniProt P08170)
Construct: purchased Aldrich Chemical Co. (Milwaukee, WI, USA)
Sequence (P08170 1-839): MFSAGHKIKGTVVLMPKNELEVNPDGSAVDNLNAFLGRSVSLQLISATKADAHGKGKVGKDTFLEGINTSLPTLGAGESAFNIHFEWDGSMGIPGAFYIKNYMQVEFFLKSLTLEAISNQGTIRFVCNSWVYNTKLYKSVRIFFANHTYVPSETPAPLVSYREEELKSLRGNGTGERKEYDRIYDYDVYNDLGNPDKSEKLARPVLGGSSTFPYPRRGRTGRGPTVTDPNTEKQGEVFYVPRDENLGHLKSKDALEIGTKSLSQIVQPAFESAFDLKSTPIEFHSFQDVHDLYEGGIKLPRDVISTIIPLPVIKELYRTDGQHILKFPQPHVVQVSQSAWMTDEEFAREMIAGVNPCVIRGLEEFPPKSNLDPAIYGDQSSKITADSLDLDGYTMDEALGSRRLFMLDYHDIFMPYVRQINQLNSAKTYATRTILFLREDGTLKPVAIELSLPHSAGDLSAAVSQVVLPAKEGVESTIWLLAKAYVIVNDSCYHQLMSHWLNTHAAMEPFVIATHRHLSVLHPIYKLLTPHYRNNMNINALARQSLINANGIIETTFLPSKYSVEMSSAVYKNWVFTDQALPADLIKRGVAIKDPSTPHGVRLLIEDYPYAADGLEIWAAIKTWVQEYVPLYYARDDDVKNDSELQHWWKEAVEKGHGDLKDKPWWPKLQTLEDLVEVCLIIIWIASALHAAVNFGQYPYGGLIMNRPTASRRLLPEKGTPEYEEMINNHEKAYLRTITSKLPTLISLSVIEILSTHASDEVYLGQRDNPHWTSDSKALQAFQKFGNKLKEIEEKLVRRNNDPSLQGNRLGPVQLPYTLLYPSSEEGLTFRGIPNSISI
Assay: In vitro inhibition of soybean lipoxygenase (LOX)
Assay type: biochemical
Settings: soybean LOX, sodium linoleate 0.1 mM, Tris buffer pH 9; read-out: LOX Inhibition IC50
property measured: IC50 (µM)

// known answers, use as guide
>>> df
                            compound_smiles  property_measured  numeric_result
0  CC(C)(C)[N+]([O-])=CCn1cc(-c2ccc(F)cc2)nn1               IC50             100
1          C[N+]([O-])=CCn1cc(-c2ccccc2)nn1               IC50            37.5

A. CC(C)(C)[N+]([O-])=CCn1cc(-c2ccccc2F)nn1
B. Cc1cc(-c2cn(CC=[N+]([O-])C(C)(C)C)nn2)ccc1F
C. CC(C)(C)[N+]([O-])=CCn1cc(-c2ccc(F)cc2F)nn1
Q) Sort the 3 compounds by IC50; largest first, smallest last. Record the ranking as a list of labels in the requested order.
A) C, A, B

====

Target: soybean lipoxygenase (LOX) (Glycine max)
Construct: purchased Aldrich Chemical Co. (Milwaukee, WI, USA)
Test: In vitro inhibition of soybean lipoxygenase (LOX)
Format: biochemical
property measured: pIC50
Note on units: pIC50 is unitless, being -log10 of a concentration expressed in mol/L.

response.value for C[N+]([O-])=CCn1cc(-c2ccc(F)cc2F)nn1 [Nitrone 8e] (field: pIC50) = 4.06
